Tested on: Pyricularia grisea
protocol summary: microbe, parasite or virus in culture
Format: functional
condition details: ATCC 64413, 120 h, read-out: GI
Task for the reader: assign each of the following compounds its reported inhibition of growth at 100 µg/mL.
Just the number in %, nothing appended.

Query: inhibition of growth at 100 µg/mL; subject: `CCOC(=O)c1cn[nH]c1NC(=S)Nc1ccccc1Cl`
Reply: 67

Query: Field entry: `CCOC(=O)c1cn[nH]c1NC(=S)NCc1ccccc1`
Reply: 41.4

Query: Field entry: `O=c1c2cn[nH]c2[nH]c(=S)n1-c1cccc(Cl)c1`
Reply: 5

Query: Field entry: `CCn1c(=S)[nH]c2[nH]ncc2c1=O`
Reply: 4.1

Query: Field entry: `Cc1c(C(=O)O)c(C(=O)NC2CC2)nn1C`
Reply: 8.6

Query: Field entry: `CCCCNC(=S)Nc1[nH]ncc1C(=O)OCC`
Reply: 10

Query: Field entry: `CCOC(=O)c1c[nH]nc1N=C(S)Nc1ccc(Cl)cc1`
Reply: 36.7

Query: Field entry: `Cc1c(C(=O)O)c(C(=O)NC(C)(C)C)nn1-c1ccc(Cl)cc1`
Reply: 33.2

Query: Field entry: `Cc1c(C(=O)O)c(C(=O)NC(C)(C)C)nn1-c1ccccc1`
Reply: 13.9

Query: Field entry: `COC(=O)c1c(C(=O)NC2CC2)nn(C)c1C`
Reply: 3.4

Query: Field entry: `COC(=O)c1c(C(=O)O)nn(C)c1C`
Reply: 8.4

Query: Field entry: `O=c1c2cn[nH]c2[nH]c(=S)n1-c1cccc(C(F)(F)F)c1`
Reply: 4.1

Query: Field entry: `Cc1c(C(=O)O)c(C(=O)NC(C)(C)C)nn1-c1c(Cl)cc(C(F)(F)F)cc1Cl`
Reply: 24.4

Query: Field entry: `Cc1[nH]nc(C(=O)NC2CC2)c1C(=O)O`
Reply: 9

Query: Field entry: `CCNC(=S)Nc1[nH]ncc1C(=O)OCC`
Reply: 28.9

Query: Field entry: `CCOC(=O)c1cn[nH]c1NC(=S)Nc1cccc(C(F)(F)F)c1`
Reply: 51

Query: Field entry: `CCOC(=O)c1cn[nH]c1NC(=S)NC1CCCCC1`
Reply: 36

Query: Field entry: `CCOC(=O)c1cn[nH]c1NC(=S)Nc1ccc(Br)cc1`
Reply: 27.2

Query: Field entry: `CCOC(=O)c1cn[nH]c1NC(=S)Nc1ccc([N+](=O)[O-])cc1`
Reply: 17.7

Query: Field entry: `CCOC(=O)c1cn[nH]c1NC(=S)Nc1cccc(Cl)c1`
Reply: 26

Query: Field entry: `Cc1c(C(=O)O)c(C(=O)NC(C)(C)C)nn1C`
Reply: 5.8

Query: Field entry: `O=c1c2cn[nH]c2[nH]c(=S)n1Cc1ccccc1`
Reply: 44.4

Query: Field entry: `O=c1c2cn[nH]c2[nH]c(=S)n1-c1ccc(Br)cc1`
Reply: 20

Query: Field entry: `Cc1onc(C(=O)NC2CC2)c1C(=O)O`
Reply: 8.97

Query: Field entry: `Cc1cccc2sc3nncn3c12`
Reply: 62

* * *

Task for the reader: assign each of the following compounds its reported inhibition of growth at 100 µg/mL.
System: Globisporangium ultimum
protocol summary: Antifungal activity against logarithmic phase of Pythium ultimum ATCC 58812 assessed as growth inhibition at 100 ug/ml measured at 5 days post-drug treatment
Format: functional
condition details: ATCC 58812, 120 h, read-out: GI
Just the number in %, nothing appended.

Query: Lab note: need inhibition of growth at 100 µg/mL for `O=c1c2cn[nH]c2[nH]c(=S)n1-c1cccc(Cl)c1` on Globisporangium ultimum, anyone have it?
Reply: 10.8

Query: Field entry: `CCCCNC(=S)Nc1[nH]ncc1C(=O)OCC`
Reply: 10.4

Query: Field entry: `CCOC(=O)c1cn[nH]c1NC(=S)Nc1ccc([N+](=O)[O-])cc1`
Reply: 63.4

Query: Field entry: `CCOC(=O)c1cn[nH]c1NC(=S)NCc1ccccc1`
Reply: 38.3

Query: Field entry: `CCOC(=O)c1cn[nH]c1NC(=S)Nc1cccc(C(F)(F)F)c1`
Reply: 28

Query: Field entry: COC(=O)N(OC)c1ccccc1COc1ccn(-c2ccc(Cl)cc2)n1 [PYRACLOSTROBIN]
Reply: 100

Query: Field entry: `Cc1c(C(=O)O)c(C(=O)NC(C)(C)C)nn1-c1ccc(Cl)cc1`
Reply: 69.3

Query: Field entry: `Cc1[nH]nc(C(=O)NC2CC2)c1C(=O)O`
Reply: 39.9

Query: Field entry: `CCOC(=O)c1cn[nH]c1NC(=S)NC1CCCCC1`
Reply: 63.9

Query: Field entry: `O=c1c2cn[nH]c2[nH]c(=S)n1-c1ccc([N+](=O)[O-])cc1`
Reply: 13.7

Query: Field entry: `O=c1c2cn[nH]c2[nH]c(=S)n1-c1ccc(Cl)cc1`
Reply: 37.8

Query: Field entry: `O=c1c2cn[nH]c2[nH]c(=S)n1-c1ccc(Br)cc1`
Reply: 61.8

Query: Field entry: `Cc1onc(C(=O)NC2CC2)c1C(=O)O`
Reply: 53.5

Query: Field entry: `Cc1c(C(=O)O)c(C(=O)NC(C)(C)C)nn1C`
Reply: 41.3

Query: Field entry: `Cc1onc(C(=O)NC(C)(C)C)c1C(=O)O`
Reply: 40.2

Query: Field entry: `Cc1c(C(=O)O)c(C(=O)NC(C)(C)C)nn1-c1ccccc1`
Reply: 83.4

Query: Field entry: `Cc1c(C(=O)O)c(C(=O)NC(C)(C)C)nn1-c1c(Cl)cc(C(F)(F)F)cc1Cl`
Reply: 54.7

Query: Field entry: `CCNC(=S)Nc1[nH]ncc1C(=O)OCC`
Reply: 20

Query: Field entry: `O=c1c2cn[nH]c2[nH]c(=S)n1-c1cccc(C(F)(F)F)c1`
Reply: 57.8

Query: Field entry: `COC(=O)c1c(C(=O)NC2CC2)nn(C)c1C`
Reply: 7.7

Query: Field entry: `CCOC(=O)c1cn[nH]c1NC(=S)Nc1ccc(Br)cc1`
Reply: 3.1

Query: Field entry: `CCOC(=O)c1cn[nH]c1NC(=S)Nc1cccc(Cl)c1`
Reply: 60.8

Query: Field entry: `CCOC(=O)c1cn[nH]c1NC(=S)Nc1ccccc1Cl`
Reply: 70

Query: Field entry: `Cc1c(C(=O)O)c(C(=O)NC2CC2)nn1C`
Reply: 11.4

Query: Field entry: `CCOC(=O)c1c[nH]nc1N=C(S)Nc1ccc(Cl)cc1`
Reply: 61.5

Query: Field entry: `O=c1c2cn[nH]c2[nH]c(=S)n1Cc1ccccc1`
Reply: 78
